# pIC50 per record follows
Biological target: Aromatase (Homo sapiens, UniProt P11511)
Sequence (P11511 whole entry): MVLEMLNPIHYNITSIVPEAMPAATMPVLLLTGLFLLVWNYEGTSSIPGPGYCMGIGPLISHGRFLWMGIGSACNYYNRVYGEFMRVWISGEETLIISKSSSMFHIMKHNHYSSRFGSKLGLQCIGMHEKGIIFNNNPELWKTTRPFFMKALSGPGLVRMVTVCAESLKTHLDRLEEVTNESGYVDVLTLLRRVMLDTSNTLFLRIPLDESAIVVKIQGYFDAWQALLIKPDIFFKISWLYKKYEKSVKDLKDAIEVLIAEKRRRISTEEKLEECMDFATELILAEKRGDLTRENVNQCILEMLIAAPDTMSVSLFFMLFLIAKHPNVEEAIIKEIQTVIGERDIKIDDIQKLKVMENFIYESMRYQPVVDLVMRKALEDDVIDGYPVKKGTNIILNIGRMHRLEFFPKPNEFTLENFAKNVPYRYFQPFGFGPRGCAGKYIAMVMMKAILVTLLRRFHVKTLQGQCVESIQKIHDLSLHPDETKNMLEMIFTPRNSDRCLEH
Experiment: Inhibition of recombinant human aromatase using ARO substrate/NADP+ mixture by fluorescence assay
pIC50: −log10 of the molar value.
Measured attribute: pIC50

>>> measured_number("Cc1ncsc1-c1ccc([C@H](C)NC(=O)[C@@H]2C[C@@H](O)CN2C(=O)[C@@H](NC(=O)CCCCCCCOc2ccc(N(CC(F)(F)F)S(=O)(=O)C3CC4OC3C(c3ccc(-n5ccnc5)cc3)=C4c3ccc(O)cc3)cc2)C(C)(C)C)cc1 (some centres undefined)")
5.00
>>> measured_number("Cc1ncsc1-c1ccc([C@H](C)NC(=O)[C@@H]2C[C@@H](O)CN2C(=O)[C@@H](NC(=O)CCCCCCOc2ccc(N(CC(F)(F)F)S(=O)(=O)C3CC4OC3C(c3ccc(-n5ccnc5)cc3)=C4c3ccc(O)cc3)cc2)C(C)(C)C)cc1 (some centres undefined)")
5.28
>>> measured_number("Cc1ncsc1-c1ccc([C@H](C)NC(=O)[C@@H]2C[C@@H](O)CN2C(=O)[C@@H](NC(=O)CCCOc2ccc(N(CC(F)(F)F)S(=O)(=O)C3CC4OC3C(c3ccc(-n5ccnc5)cc3)=C4c3ccc(O)cc3)cc2)C(C)(C)C)cc1 (some centres undefined)")
5.92
>>> measured_number("Cc1ncsc1-c1ccc([C@H](C)NC(=O)[C@@H]2C[C@@H](O)CN2C(=O)[C@@H](NC(=O)CCCCOc2ccc(N(CC(F)(F)F)S(=O)(=O)C3CC4OC3C(c3ccc(-n5ccnc5)cc3)=C4c3ccc(O)cc3)cc2)C(C)(C)C)cc1 (some centres undefined)")
6.49
>>> measured_number("Cc1ncsc1-c1ccc([C@H](C)NC(=O)[C@@H]2C[C@@H](O)CN2C(=O)[C@@H](NC(=O)COCCOCCOCCOCCOc2ccc(N(CC(F)(F)F)S(=O)(=O)C3CC4OC3C(c3ccc(-n5ccnc5)cc3)=C4c3ccc(O)cc3)cc2)C(C)(C)C)cc1 (some centres undefined)")
6.19
>>> measured_number("Cc1ncsc1-c1ccc([C@H](C)NC(=O)[C@@H]2C[C@@H](O)CN2C(=O)[C@@H](NC(=O)COCCOCCOc2ccc(N(CC(F)(F)F)S(=O)(=O)C3CC4OC3C(c3ccc(-n5ccnc5)cc3)=C4c3ccc(O)cc3)cc2)C(C)(C)C)cc1 (some centres undefined)")
6.49
>>> measured_number("Cc1ncsc1-c1ccc([C@@H](C)NC(=O)[C@H]2C[C@H](O)CN2C(=O)[C@H](NC(=O)COCCOCCOCCOc2ccc(N(CC(F)(F)F)S(=O)(=O)C3CC4OC3C(c3ccc(-n5ccnc5)cc3)=C4c3ccc(O)cc3)cc2)C(C)(C)C)cc1 (some centres undefined)")
5.59
>>> measured_number("Cc1ncsc1-c1ccc([C@H](C)NC(=O)[C@@H]2C[C@@H](O)CN2C(=O)[C@@H](NC(=O)COCCOc2ccc(N(CC(F)(F)F)S(=O)(=O)C3CC4OC3C(c3ccc(-n5ccnc5)cc3)=C4c3ccc(O)cc3)cc2)C(C)(C)C)cc1 (some centres undefined)")
5.41
>>> measured_number("Cc1ncsc1-c1ccc([C@H](C)NC(=O)[C@@H]2C[C@@H](O)CN2C(=O)[C@@H](NC(=O)CCCCCOc2ccc(N(CC(F)(F)F)S(=O)(=O)C3CC4OC3C(c3ccc(-n5ccnc5)cc3)=C4c3ccc(O)cc3)cc2)C(C)(C)C)cc1 (some centres undefined)")
5.34

---

Target: von Hippel-Lindau disease tumor suppressor/Aromatase (Homo sapiens, UniProt P11511+P40337)
Sequence (P11511 whole entry): as above
Sequence (P40337 whole entry): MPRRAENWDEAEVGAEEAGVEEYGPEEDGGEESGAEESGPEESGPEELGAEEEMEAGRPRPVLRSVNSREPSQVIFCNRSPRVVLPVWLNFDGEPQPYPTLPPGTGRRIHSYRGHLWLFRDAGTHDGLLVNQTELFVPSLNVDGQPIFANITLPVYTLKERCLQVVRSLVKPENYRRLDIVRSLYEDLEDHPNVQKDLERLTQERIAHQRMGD
Assay: PROTAC activity at human ARO/VHL E3 ligase in human MCF-7 cells assessed as degradation of ARO at 1 uM incubated for 24 hrs by Western blot analysis
Assay type: cell-based
Settings: mcf7, 24 h
Measured attribute: Activity

>>> result("Cc1ncsc1-c1ccc([C@H](C)NC(=O)[C@@H]2C[C@@H](O)CN2C(=O)[C@@H](NC(=O)CCCCCCCCCOc2ccc(N(CC(F)(F)F)S(=O)(=O)C3CC4OC3C(c3ccc(-n5ccnc5)cc3)=C4c3ccc(O)cc3)cc2)C(C)(C)C)cc1 (stereo partly drawn)")
"Active"
>>> result("Cc1ncsc1-c1ccc([C@H](C)NC(=O)[C@@H]2C[C@@H](O)CN2C(=O)[C@@H](NC(=O)COCCOc2ccc(N(CC(F)(F)F)S(=O)(=O)C3CC4OC3C(c3ccc(-n5ccnc5)cc3)=C4c3ccc(O)cc3)cc2)C(C)(C)C)cc1 (stereo partly drawn)")
"Active"
>>> result("Cc1ncsc1-c1ccc([C@H](C)NC(=O)[C@@H]2C[C@@H](O)CN2C(=O)[C@@H](NC(=O)CCCOc2ccc(N(CC(F)(F)F)S(=O)(=O)C3CC4OC3C(c3ccc(-n5ccnc5)cc3)=C4c3ccc(O)cc3)cc2)C(C)(C)C)cc1 (stereo partly drawn)")
"Active"

---

Biological target: von Hippel-Lindau disease tumor suppressor/Aromatase (Homo sapiens, UniProt P11511+P40337)
Assay: PROTAC activity at human ARO/VHL E3 ligase in human MCF-7 cells assessed as degradation of ARO at 1 uM incubated for 24 hrs by Western blot analysis
Format: cell-based
Conditions: mcf7, 24 h
Measured attribute: Activity

>>> result("Cc1ncsc1-c1ccc([C@H](C)NC(=O)[C@@H]2C[C@@H](O)CN2C(=O)[C@@H](NC(=O)CCCCCCCOc2ccc(N(CC(F)(F)F)S(=O)(=O)C3CC4OC3C(c3ccc(-n5ccnc5)cc3)=C4c3ccc(O)cc3)cc2)C(C)(C)C)cc1 (some centres not stated)")
"Active"
>>> result("Cc1ncsc1-c1ccc([C@H](C)NC(=O)[C@@H]2C[C@@H](O)CN2C(=O)[C@@H](NC(=O)CCCCCCCCOc2ccc(N(CC(F)(F)F)S(=O)(=O)C3CC4OC3C(c3ccc(-n5ccnc5)cc3)=C4c3ccc(O)cc3)cc2)C(C)(C)C)cc1 (some centres not stated)")
"Active"
